Test system: benzodiazepine receptor of rat brains
testSummary: Radioligand receptor binding assay ([3H]-flumazenil competitive binding)
assayContext: log[L] -8.0; mean ± SEM, n=3
Description: All of the binding assays were performed in triplicates in a total volume of 500 µL at 30 °C for 35 min (Ahmadi et al., 2013[1]). Kd and Bmax in radioligand binding assay were calculated by non-linear regression analysis of the saturation and competitive curve data (Program Prism, Graph Pad, San Diego, CA). The IC50s of the novel compounds in binding studies were determined using one-way ANOVA with Tukey's HSD post-hoc test. […]
Here, each record is paired with measured Specific binding of [3H]flumazenil data.

{"columns": ["chemicalStructure", "Specific binding of [3H]flumazenil, cpm"],
 "data": [
  ["Cc1ccnc(NC(=O)c2nnc(-c3ccc(Cl)cc3Oc3ccccc3)o2)c1", 0.3100],
  ["O=C(Nc1ccccc1)c1nnc(-c2ccc(Cl)cc2Oc2ccccc2)o1", 0.4000],
  ["Cc1cccc(NC(=O)c2nnc(-c3ccc(Cl)cc3Oc3ccccc3)o2)n1", 0.3100],
  ["O=C(Nc1ccccn1)c1nnc(-c2ccc(Cl)cc2Oc2ccccc2)o1", 0.3733],
  ["O=C(NC1CCCCC1)c1nnc(-c2ccc(Cl)cc2Oc2ccccc2)o1", 0.3533],
  ["O=C(NN1CCOCC1)c1nnc(-c2ccc(Cl)cc2Oc2ccccc2)o1", 0.3067]
]}

----------
Tested on: benzodiazepine receptor of rat brains
testSummary: Radioligand receptor binding assay ([3H]-flumazenil competitive binding)
assayContext: log[L] -9.5; mean ± SEM, n=3
assayReadout: Specific binding of [3H]flumazenil (cpm)

{"columns": ["compound", "assayValue"],
 "data": [
  ["O=C(NN1CCOCC1)c1nnc(-c2ccc(Cl)cc2Oc2ccccc2)o1 [6e]", 0.6033],
  ["O=C(Nc1ccccc1)c1nnc(-c2ccc(Cl)cc2Oc2ccccc2)o1 [6a]", 0.5100],
  ["O=C(Nc1ccccn1)c1nnc(-c2ccc(Cl)cc2Oc2ccccc2)o1 [6b]", 0.5467],
  ["O=C(NC1CCCCC1)c1nnc(-c2ccc(Cl)cc2Oc2ccccc2)o1 [6f]", 0.5500],
  ["Cc1cccc(NC(=O)c2nnc(-c3ccc(Cl)cc3Oc3ccccc3)o2)n1 [6c]", 0.5367],
  ["Cc1ccnc(NC(=O)c2nnc(-c3ccc(Cl)cc3Oc3ccccc3)o2)c1 [6d]", 0.5367]
]}

----------
Test system: benzodiazepine receptor of rat brains
testSummary: Radioligand receptor binding assay ([3H]-flumazenil competitive binding)
assayContext: log[L] -10.0; mean ± SEM, n=3

{"columns": ["chemicalStructure", "Specific binding of [3H]flumazenil"],
 "data": [
  ["O=C(NN1CCOCC1)c1nnc(-c2ccc(Cl)cc2Oc2ccccc2)o1", "0.6667±0.0148 cpm"],
  ["O=C(NC1CCCCC1)c1nnc(-c2ccc(Cl)cc2Oc2ccccc2)o1", "0.6133±0.0296 cpm"],
  ["O=C(Nc1ccccn1)c1nnc(-c2ccc(Cl)cc2Oc2ccccc2)o1", "0.5900±0.0118 cpm"],
  ["Cc1cccc(NC(=O)c2nnc(-c3ccc(Cl)cc3Oc3ccccc3)o2)n1", "0.5700±0.0156 cpm"],
  ["O=C(Nc1ccccc1)c1nnc(-c2ccc(Cl)cc2Oc2ccccc2)o1", "0.5800±0.0156 cpm"],
  ["Cc1ccnc(NC(=O)c2nnc(-c3ccc(Cl)cc3Oc3ccccc3)o2)c1", "0.5700±0.0156 cpm"]
]}
